The origin of these recorded values is PubChem BioAssay.

targetDesc: Alpha-2C adrenergic receptor (Homo sapiens)
testDescription: modulators of alpha2C/GIRK thallium flux, primary screen, cell-based, HEK293 alpha2C/GIRK1/2 (AID 624);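 also: slope of fluorescence ratio to pre-addition baseline per second over 15 to 24 s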
statedConditions: thallium flux BTC fluorescence, at 10 µM, actives lie on both sides
The source made the active and inactive calls.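 The calls were made as follows: active = fluorescence slope after compound addition differing from the mean of all screened samples at 99.7% confidence, in either direction; inactive = the rest.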
Here, each record is paired with measured slope data.

Quick check: slope of Cn1c([N+](=O)[O-])cnc1COC(N)=O ? 0.00486 (inactive)

Quick check: slope of CCn1c(SC(C)C(=O)O)nc2sc3c(c2c1=O)CCC3 (configuration not stated) ? 0.0197 (active)

Quick check: slope of CC1CNCCN1S(=O)(=O)c1cccc2cnccc12 (configuration not stated) ? 0.00348 (inactive)

Quick check: slope of C=CCn1c(SCC(=O)c2ccccc2)nnc1-c1ccc2c(c1)OCO2 ? 0.00455 (inactive)

Quick check: slope of Cc1cc(=O)oc(C)c1C(=O)N1CCN(Cc2ccc3c(c2)OCO3)CC1 ? 0.00491 (inactive)

----------
testDescription: inhibitors of Sendai virus-induced IRF3 signaling, primary screen, TLR/RLR signaling modifier project, cell-based, Sendai virus stimulus, luciferase, 10K MLSCN set (AID 602276);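 also: firefly luciferase from ISG56 promoter only with Renilla not read in this screen; 0% = Sendai virus plus DMSO and 100% = medium plus DMSO without virus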
statedConditions: HEK293 RL24 IRF3 luciferase reporter, at 10 µM, stronger effect = higher value
Here, each record is paired with measured inhibition data.
Provide only the numeric value, understood in %.

Worked cases, answers included:
CCCCCCCCNC(C)C(O)c1ccc(SC(C)C)cc1 (stereo unspecified)	19.5
CCNC(=O)N(C)c1nncnc1C(=O)NC	18.1
Nc1nnc(-c2cccc(Cl)c2Cl)c(N)n1	-2.35

Quick check: inhibition of C[C@H](CCC(=O)O)[C@H]1CC[C@H]2[C@@H]3C(=O)C[C@@H]4CC(=O)CC[C@]4(C)[C@H]3CC(=O)[C@]12C ? 14.6

Quick check: inhibition of O=C(NCCN1CCCCC1)c1ccc(=O)oc1 ? 3.93

Quick check: inhibition of CCC(NC(C)C)C(O)c1ccc(O)c2[nH]c(=O)ccc12 (stereo unspecified) ? 17.4

Quick check: inhibition of CNCCC=C1c2ccccc2CCc2ccccc21 ? 29.4

----------
Here, each record is paired with measured slope data.
targetDesc: Alpha-2C adrenergic receptor (Homo sapiens)
testDescription: modulators of alpha2C/GIRK thallium flux, primary screen, cell-based, HEK293 alpha2C/GIRK1/2 (AID 624);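 also: slope of fluorescence ratio to pre-addition baseline per second over 15 to 24 s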
statedConditions: thallium flux BTC fluorescence, at 10 µM, actives lie on both sides
Simply state the number, no unit and no words.

Worked cases, answers included:
COc1ccccc1C1/C(=C(/O)c2cnn(-c3ccccc3)c2C)C(=O)C(=O)N1CCN(C)C (stereo not given)	0.00448
CCOC(=O)c1[nH]c2cc3c(cc2c1NC(=O)CN1CCC2(CC1)OCCO2)OCO3	0.00639
CCOC(=O)CSC1=C(C#N)C(c2ccc(C)cc2)C(C(=O)OC)C(=O)N1 (stereo not given)	0.00434

Quick check: slope of Cc1nc2sc3c(NCc4ccco4)ncnc3c2c2c1COC(C)(C)C2 ? 0.00585

Quick check: slope of O=C(O)Cc1ccc(-c2ccccc2)cc1 ? 0.00497

----------
Here, each record is paired with measured slope data.
targetDesc: Alpha-2C adrenergic receptor (Homo sapiens)
testDescription: modulators of alpha2C/GIRK thallium flux, primary screen, cell-based, HEK293 alpha2C/GIRK1/2 (AID 624);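 also: slope of fluorescence ratio to pre-addition baseline per second over 15 to 24 s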
statedConditions: thallium flux BTC fluorescence, at 10 µM, actives lie on both sides
Simply state the number, no unit and no words.

Worked cases, answers included:
O=C(NCCO)c1cccc2c1C(=O)c1ccccc1-2	0.00471
CCCSc1ccc2nc(NC(=O)OC)[nH]c2c1	0.00562
CC[C@H](C)C(=O)O[C@H]1C[C@@H](C)C=C2C=C[C@H](C)[C@H](CC[C@@H]3C[C@@H](O)CC(=O)O3)[C@H]21	0.00586
CCOC(=O)CSc1nc(NC#N)nc(N(CC)CC)n1	0.0053

Quick check: slope of Nc1nc2ccc(OC(F)(F)F)cc2s1 ? 0.00474

Quick check: slope of CCn1nnc(C(=O)O)c1C(=O)O ? 0.00833

----------
Here, each record is paired with measured nuclei count data.
testDescription: inhibitors of E-selectin induction by TNFa, primary screen, imaging, HUVEC, immunofluorescence, MLSMR starter and 10KST1 sets (AID 487);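 also: 100% = median nuclei count of all wells on the same plate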
statedConditions: HUVEC TNFalpha-induced E-selectin immunofluorescence imaging, at 2 µM; measured here: cell number, toxicity
Provide only the numeric value, understood in %.

CN(C)c1ccc(-c2nn3c(-c4ccc(Cl)cc4)nnc3s2)cc1	147

Quick check: nuclei count of COc1ccc(CNc2oc(COc3ccccc3Cl)nc2C#N)cc1 ? 126

Quick check: nuclei count of CCCNC(=O)N(C)c1nncnc1C(=O)NC ? 99.4

Quick check: nuclei count of CCCCC(C(=O)O)C(C)CC(=O)Nc1cccc(C(=O)O)c1 (stereo not drawn) ? 176

Quick check: nuclei count of N#Cc1c(N)nc(SCC(=O)NCCc2ccccc2)c(C#N)c1-c1cccs1 ? 62.6

Quick check: nuclei count of CCN(CC)C(=O)CSC1=C(C#N)C(c2cccs2)C=C(C)N1 (stereo not drawn) ? 171

Quick check: nuclei count of Cn1c(=O)c2[nH]cnc2n(C)c1=O ? 142

Quick check: nuclei count of CCc1c(C)c(C#N)c2nc3ccccc3n2c1-n1nc(C)cc1C ? 140

Quick check: nuclei count of Cn1c(OCc2ccc3c(c2)OCO3)nc2c1c(=O)n(Cc1cccc(Cl)c1)c(=O)n2C ? 149

Quick check: nuclei count of O=C1C=C(O)CC(c2ccco2)C1 (stereo not drawn) ? 82

Quick check: nuclei count of COC(=O)CNC(=O)c1c(C)cc(=O)oc1C ? 115

----------
testDescription: inhibitors of Chlamydomonas gravitaxis, primary screen, whole organism, Chlamydomonas reinhardtii, WT vs cilia-less mutant, absorbance, 96-well (AID 463189);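 also: 0% = wild type cc124 cells in DMSO and 100% = ciliumless bld1 mutant cells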
statedConditions: OD600 absorbance, 2 days, at 10 µM, stronger effect = higher value
valueKind: inhibition (%)
Provide only the numeric value, understood in %.

Worked cases, answers included:
COc1ccc(-c2nn3c(COc4ccccc4)nnc3s2)cc1OC	-1.36
CCCCc1ccc(NC(=O)CSC2=C(C#N)C(c3ccco3)C3=C(CCCC3=O)N2)cc1 (stereo unspecified)	-5.66

Quick check: inhibition of CCCCCC(=O)O[C@]1(C(C)=O)CC[C@H]2[C@@H]3CCC4=CC(=O)CC[C@]4(C)[C@H]3CC[C@@]21C ? 3.11

Quick check: inhibition of CC1(C(=O)CSc2nc3ccccc3s2)CCC(=O)O1 (stereo unspecified) ? 6.36

Quick check: inhibition of COc1ccc(/C=N/n2cncn2)cc1COc1ccc(NC(C)=O)cc1 ? -6.96

Quick check: inhibition of O=C(NCC(F)(F)F)N1CCOCC1 ? 33.2

Quick check: inhibition of CCCc1[nH]nc2c1C(c1cccc(OC)c1)C(C#N)=C(N)O2 (stereo unspecified) ? 11.7

----------
testDescription: inhibitors of E-selectin induction by TNFa, primary screen, imaging, HUVEC, immunofluorescence, MLSMR starter and 10KST1 sets (AID 487);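 also: 100% = median nuclei count of all wells on the same plate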
statedConditions: HUVEC TNFalpha-induced E-selectin immunofluorescence imaging, at 2 µM; measured here: cell number, toxicity
Here, each record is paired with measured nuclei count data.
Provide only the numeric value, understood in %.

Worked cases, answers included:
Cn1c(SCC(=O)N2CCOCC2)nnc1-c1ccc(Cl)cc1Cl	101
CCOC(=O)CC1=C(C(=O)OCC)C(c2cc(OC)c(OC)cc2OC)C(C#N)=C(N)O1 (stereo not drawn)	106

// moving on: another record for nuclei count
Quick check: nuclei count of COC(=O)c1ccccc1NC=C1C(=O)OC2(CCCCC2)OC1=O ? 86.4

----------
targetDesc: Alpha-2C adrenergic receptor (Homo sapiens)
testDescription: modulators of alpha2C/GIRK thallium flux, primary screen, cell-based, HEK293 alpha2C/GIRK1/2 (AID 624);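 also: slope of fluorescence ratio to pre-addition baseline per second over 15 to 24 s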
statedConditions: thallium flux BTC fluorescence, at 10 µM, actives lie on both sides
Rule for this label: true (1) means slope is less than 0.005; false (0) means slope is at least 0.005.

Worked set:
CCCCc1ccc(NC(=O)CSC2=C(C#N)C(c3ccco3)C3=C(CCCC3=O)N2)cc1 (stereo unspecified)	false (0)
OC1CN=C2Sc3ccccc3N2C1 (stereo unspecified)	true (1)
CC(=Nc1ccc(C)c(C)c1)C1=C(O)CCC1=O	false (0)

Dear colleague, could you confirm whether slope of CCCOc1ccc(N2C(=O)CC(N(Cc3ccc(S(N)(=O)=O)cc3)C(=O)CC)C2=O)cc1 (stereo unspecified) falls below 0.005? Thanks. true (1)

Dear colleague, could you confirm whether slope of COC(=O)c1ccc(OC(=O)c2ccc(OC)c(OC)c2)c(OC)c1 falls below 0.005? Thanks. false (0)

Dear colleague, could you confirm whether slope of CCn1cc(C(=O)O)c(=O)c2cc(F)c(N3CCNCC3)nc21 falls below 0.005? Thanks. true (1)

Dear colleague, could you confirm whether slope of O=C1CCC(=O)N1c1nc2nc(-c3ccccc3)cc(-c3ccccc3)n2n1 falls below 0.005? Thanks. true (1)

Dear colleague, could you confirm whether slope of O=c1c(F)cn(C2CCCO2)c(=O)n1Cc1ccccc1Cl (stereo unspecified) falls below 0.005? Thanks. false (0)
